// merged dataset of Ki values, system = Carbonic anhydrase 4 (Homo sapiens, UniProt P22748), multiple refs
Sequence (P22748 whole entry): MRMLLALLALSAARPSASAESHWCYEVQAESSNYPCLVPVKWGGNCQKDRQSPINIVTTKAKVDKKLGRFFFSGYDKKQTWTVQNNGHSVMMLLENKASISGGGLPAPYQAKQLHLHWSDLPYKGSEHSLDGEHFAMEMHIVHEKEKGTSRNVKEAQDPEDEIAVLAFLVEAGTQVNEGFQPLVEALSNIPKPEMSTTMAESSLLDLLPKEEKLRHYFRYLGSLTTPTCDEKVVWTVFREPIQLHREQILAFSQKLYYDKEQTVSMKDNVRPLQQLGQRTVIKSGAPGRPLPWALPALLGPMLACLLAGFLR
The reply should be a number in µM, with the unit left off.

Asked: What measured Ki goes with "NS(=O)(=O)c1ccc(NC(=O)CN(CCN(CCN(CC(=O)O)CC(=O)O)CC(=O)O)CC(=O)O)c(Cl)c1" ?
Given back: 0.032

Asked: What measured Ki goes with "Oc1ccc(Cc2ccc(O)c(O)c2)cc1O" ?
Given back: 7.64

Asked: What measured Ki goes with "Nc1ccc(S(N)(=O)=O)cc1I" ?
Given back: 0.92

---

// merged dataset of pKi values, system = Carbonic anhydrase 4 (Homo sapiens, UniProt P22748), multiple refs
Here pKi is given on a logarithmic scale as minus log10 of the concentration in mol/L.

Asked: Value wanted: pKi (Carbonic anhydrase 4 (Homo sapiens, UniProt P22748)) of entry "COc1cc(/C=C2/SC(Nc3ccc(OS(N)(=O)=O)cc3)=NC2=O)cc(OC)c1OC"
Given back: 7.37

Asked: Value wanted: pKi (Carbonic anhydrase 4 (Homo sapiens, UniProt P22748)) of entry "NCCC(=O)Nc1nnc(S(N)(=O)=O)s1"
Given back: 6.90

Asked: Value wanted: pKi (Carbonic anhydrase 4 (Homo sapiens, UniProt P22748)) of entry "NS(=O)(=O)c1nc2ccc(NC(=O)CN(CCN(CCN(CC(=O)O)CC(=O)Nc3ccc4nc(S(N)(=O)=O)sc4c3)CC(=O)O)CC(=O)O)cc2s1"
Given back: 8.22

Asked: Value wanted: pKi (Carbonic anhydrase 4 (Homo sapiens, UniProt P22748)) of entry "CN1CCN(C(=S)SCC(=O)Nc2ccc(S(N)(=O)=O)cc2)CC1"
Given back: 6.38

Asked: Value wanted: pKi (Carbonic anhydrase 4 (Homo sapiens, UniProt P22748)) of entry "CCOC(=O)c1cc2cc(CO)ccc2oc1=O"
Given back: 7.32

Asked: Value wanted: pKi (Carbonic anhydrase 4 (Homo sapiens, UniProt P22748)) of entry "NCCNCCCNCCN"
Given back: 4.36

Asked: Value wanted: pKi (Carbonic anhydrase 4 (Homo sapiens, UniProt P22748)) of entry "O=C1NS(=O)(=O)c2cccc3c2N1CC3"
Given back: 5.41
